# System: human PKK mRNA
# assayNotes: Dose-dependent antisense inhibition of human PKK in HepaRG cells, 0.11-3.00 uM (Example 6)
# Format: cell-based
# setupConditions: 0.11-3.00 μM
Strand notation (5' to 3'): a small letter for the sugar, then the base; units joined by * are phosphorothioate-linked, units joined directly phosphodiester-linked; [ ] holds rarer units or linkages, { } end groups; capitals alone tell only the bases. e = 2'-O-(2-methoxyethyl) (MOE); k = constrained ethyl (cEt); [5mC] = 5-methylcytosine; d = 2'-deoxy (DNA)
Below, each entry is listed with its recorded IC50.
propertyLabel: IC50 (nM)

> print(dat)
                                   substance        testedon  propertylabel  resultqualifier  numericreadout
 1  548557 (antisense eG*eT*kT*dA*d[5mC]*dT*d[5mC]*dT*dG*dT*dG*dA*dT*k[5mC]*k[5mC]*eA) [compound 548557]  human PKK mRNA           IC50                =             400
 2  547997 (antisense eT*eT*kG*dT*dG*dT*d[5mC]*d[5mC]*d[5mC]*dA*dT*dA*d[5mC]*kG*k[5mC]*eA) [compound 547997]  human PKK mRNA           IC50                =             200
 3  547843 (antisense e[5mC]*eA*k[5mC]*dT*dT*dA*dT*dT*dT*dG*dA*dT*dG*kA*k[5mC]*e[5mC]) [compound 547843]  human PKK mRNA           IC50                =             400
 4  548195 (eT*eT*k[5mC]*dT*dG*d[5mC]*d[5mC]*dA*dA*d[5mC]*dA*dG*dT*kT*kT*e[5mC]; antisense) [compound 548195]  human PKK mRNA           IC50                =             800
 5  548055 (eG*eT*kA*dA*dT*dT*d[5mC]*dA*dA*dA*dG*dG*dA*kG*k[5mC]*e[5mC]; antisense) [compound 548055]  human PKK mRNA           IC50                =             300
 6  548046 (eT*eA*kT*d[5mC]*dA*dT*dG*dA*dT*dT*d[5mC]*d[5mC]*d[5mC]*kT*kT*e[5mC]; antisense) [compound 548046]  human PKK mRNA           IC50                =             700
 7  548338 (antisense eA*eT*kG*dA*dA*dA*d[5mC]*dT*dG*dT*dG*dG*d[5mC]*kT*k[5mC]*eG) [compound 548338]  human PKK mRNA           IC50                =             200
 8  548422 (antisense eG*eT*kA*dT*d[5mC]*dA*d[5mC]*dT*dG*dT*d[5mC]*d[5mC]*dT*kA*kT*eA) [compound 548422]  human PKK mRNA           IC50                =             700
 9  548220 (eG*e[5mC]*kA*dG*dA*dA*dA*dT*d[5mC]*d[5mC]*dT*dG*dT*kG*k[5mC]*eA; antisense) [compound 548220]  human PKK mRNA           IC50                >            3000
10  548570 (eA*eT*kG*d[5mC]*d[5mC]*dT*dT*dG*dT*dG*d[5mC]*d[5mC]*dT*kA*kT*eT; antisense) [compound 548570]  human PKK mRNA           IC50                =             400
11  547942 (eG*eG*kT*dG*dT*dG*d[5mC]*d[5mC]*dA*d[5mC]*dT*dT*dT*k[5mC]*kA*eG; antisense) [compound 547942]  human PKK mRNA           IC50                =             300
12  548278 (antisense eG*eG*kT*dT*d[5mC]*d[5mC]*d[5mC]*dT*dA*dG*d[5mC]*dG*dG*kT*k[5mC]*e[5mC]) [compound 548278]  human PKK mRNA           IC50                =             400
13  547877 (antisense eA*eA*k[5mC]*dA*d[5mC]*dT*dG*d[5mC]*dT*dA*dA*d[5mC]*d[5mC]*kT*kT*eA) [compound 547877]  human PKK mRNA           IC50                =             200
